Kindly supply the reported relative viability values for the records listed here.
Test system: NCI-H2087
Experiment notes: relative viability (nuclei count vs DMSO), 5 days (fraction); higher = more cells survive
Condition label: first compound 0.005 µM
Format: numeric value only, no unit, no commentary.

relative viability measured on CC1(C)CCC(c2ccc(Cl)cc2)=C(CN2CCN(c3ccc(C(=O)NS(=O)(=O)c4ccc(N[C@H](CCN5CCOCC5)CSc5ccccc5)c(S(=O)(=O)C(F)(F)F)c4)cc3)CC2)C1 [Navitoclax] + O=C(c1cc(Cc2n[nH]c(=O)c3ccccc23)ccc1F)N1CCN(C(=O)C2CC2)CC1 [Olaparib] (partner 8 µM) = 0.69

relative viability measured on CC1(C)CCC(c2ccc(Cl)cc2)=C(CN2CCN(c3ccc(C(=O)NS(=O)(=O)c4ccc(N[C@H](CCN5CCOCC5)CSc5ccccc5)c(S(=O)(=O)C(F)(F)F)c4)cc3)CC2)C1 [Navitoclax] + Cc1nc(Nc2ncc(C(=O)Nc3c(C)cccc3Cl)s2)cc(N2CCN(CCO)CC2)n1 [Dasatinib] (partner 0.075 µM) = 0.901

relative viability measured on CC1(C)CCC(c2ccc(Cl)cc2)=C(CN2CCN(c3ccc(C(=O)NS(=O)(=O)c4ccc(N[C@H](CCN5CCOCC5)CSc5ccccc5)c(S(=O)(=O)C(F)(F)F)c4)cc3)CC2)C1 [Navitoclax] + NC(=O)Nc1cc(-c2cccc(F)c2)sc1C(=O)N[C@H]1CCCNC1 [AZD7762] (partner 0.2 µM) = 1.18

----------
Test system: NCI-H2126
Experiment notes: relative viability (nuclei count vs DMSO), 5 days (fraction); higher = more cells survive
Condition label: first compound 0.01581 µM
Readout: relative viability
Format: numeric value only, no unit, no commentary.

relative viability measured on CC1(C)CCC(c2ccc(Cl)cc2)=C(CN2CCN(c3ccc(C(=O)NS(=O)(=O)c4ccc(N[C@H](CCN5CCOCC5)CSc5ccccc5)c(S(=O)(=O)C(F)(F)F)c4)cc3)CC2)C1 [Navitoclax] + CC(=O)c1c(C)c2cnc(Nc3ccc(N4CCNCC4)cn3)nc2n(C2CCCC2)c1=O [Palbociclib] (partner 0.5 µM) = 0.355

relative viability measured on CC1(C)CCC(c2ccc(Cl)cc2)=C(CN2CCN(c3ccc(C(=O)NS(=O)(=O)c4ccc(N[C@H](CCN5CCOCC5)CSc5ccccc5)c(S(=O)(=O)C(F)(F)F)c4)cc3)CC2)C1 [Navitoclax] + CC(C)C[C@H](NC(=O)[C@H](Cc1ccccc1)NC(=O)c1cnccn1)B(O)O [Bortezomib] (partner 0.002 µM) = 1.12

relative viability measured on CC1(C)CCC(c2ccc(Cl)cc2)=C(CN2CCN(c3ccc(C(=O)NS(=O)(=O)c4ccc(N[C@H](CCN5CCOCC5)CSc5ccccc5)c(S(=O)(=O)C(F)(F)F)c4)cc3)CC2)C1 [Navitoclax] + COc1cc2c(Oc3ccc(NC(=O)C4(C(=O)Nc5ccc(F)cc5)CC4)cc3F)ccnc2cc1OCCCN1CCOCC1 [Foretinib] (partner 0.25 µM) = 1.17

relative viability measured on CC1(C)CCC(c2ccc(Cl)cc2)=C(CN2CCN(c3ccc(C(=O)NS(=O)(=O)c4ccc(N[C@H](CCN5CCOCC5)CSc5ccccc5)c(S(=O)(=O)C(F)(F)F)c4)cc3)CC2)C1 [Navitoclax] + Cc1nc(NC(=O)N2CCC[C@H]2C(N)=O)sc1-c1ccnc(C(C)(C)C(F)(F)F)c1 [Alpelisib] (partner 2 µM) = 0.764

----------
Test system: HARA
Experiment notes: relative viability (nuclei count vs DMSO), 5 days (fraction); higher = more cells survive
Condition label: first compound 0.01 µM
Readout: relative viability
Format: numeric value only, no unit, no commentary.

relative viability measured on NC(=O)Nc1cc(-c2cccc(F)c2)sc1C(=O)N[C@H]1CCCNC1 [AZD7762] + CS(=O)(=O)CCNCc1ccc(-c2ccc3ncnc(Nc4ccc(OCc5cccc(F)c5)c(Cl)c4)c3c2)o1 [Lapatinib] (partner 2 µM) = 0.851

relative viability measured on NC(=O)Nc1cc(-c2cccc(F)c2)sc1C(=O)N[C@H]1CCCNC1 [AZD7762] + COc1cccc2cc(-c3nc([C@H]4CC[C@H](C(=O)O)CC4)n4ncnc(N)c34)[nH]c12 [OSI-027] (partner 0.5 µM) = 0.506

----------
Tested on: NCI-H1993
Experiment notes: relative viability (nuclei count vs DMSO), 5 days (fraction); higher = more cells survive
Condition label: first compound 0.08 µM
Readout: relative viability

relative viability measured on Oc1nc(-c2ccc(C(F)(F)F)cc2)nc2c1CSCC2 [XAV939] + CC(=O)Nc1cccc(-n2c(=O)n(C3CC3)c(=O)c3c(Nc4ccc(I)cc4F)n(C)c(=O)c(C)c32)c1 [Trametinib] (partner 0.02 µM) = 0.541

relative viability measured on C=C1C(=O)O[C@@H](CCCCCCCC)[C@@H]1C(=O)O [C-75] + C[C@@H](Oc1cc(-c2cnn(C3CCNCC3)c2)cnc1N)c1c(Cl)ccc(F)c1Cl [Crizotinib] (partner 1 µM) = 0.862

relative viability measured on C=C1C(=O)O[C@@H](CCCCCCCC)[C@@H]1C(=O)O [C-75] + Cc1nc(NC(=O)N2CCC[C@H]2C(N)=O)sc1-c1ccnc(C(C)(C)C(F)(F)F)c1 [Alpelisib] (partner 2 µM) = 0.694

relative viability measured on Oc1nc(-c2ccc(C(F)(F)F)cc2)nc2c1CSCC2 [XAV939] + COc1cccc2cc(-c3nc([C@H]4CC[C@H](C(=O)O)CC4)n4ncnc(N)c34)[nH]c12 [OSI-027] (partner 0.5 µM) = 0.563

relative viability measured on Oc1nc(-c2ccc(C(F)(F)F)cc2)nc2c1CSCC2 [XAV939] + O=C(CCCCCCC(=O)Nc1ccccc1)NO [Vorinostat] (partner 1 µM) = 0.635

relative viability measured on Oc1nc(-c2ccc(C(F)(F)F)cc2)nc2c1CSCC2 [XAV939] + Cc1cc(Nc2cc(N3CCN(C)CC3)nc(Sc3ccc(NC(=O)C4CC4)cc3)n2)n[nH]1 [Tozasertib] (partner 0.1 µM) = 0.559

relative viability measured on Oc1nc(-c2ccc(C(F)(F)F)cc2)nc2c1CSCC2 [XAV939] + Cc1nc(Nc2ncc(C(=O)Nc3c(C)cccc3Cl)s2)cc(N2CCN(CCO)CC2)n1 [Dasatinib] (partner 0.075 µM) = 0.52

----------
Kindly supply the reported relative viability values for the records listed here.
Test system: ABC-1
Experiment notes: relative viability (nuclei count vs DMSO), 5 days (fraction); higher = more cells survive
Condition label: first compound 0.05 µM

relative viability measured on CC1(C)CCC(c2ccc(Cl)cc2)=C(CN2CCN(c3ccc(C(=O)NS(=O)(=O)c4ccc(N[C@H](CCN5CCOCC5)CSc5ccccc5)c(S(=O)(=O)C(F)(F)F)c4)cc3)CC2)C1 [Navitoclax] + COc1cccc2cc(-c3nc([C@H]4CC[C@H](C(=O)O)CC4)n4ncnc(N)c34)[nH]c12 [OSI-027] (partner 0.5 µM) = 0.397

relative viability measured on CC1(C)CCC(c2ccc(Cl)cc2)=C(CN2CCN(c3ccc(C(=O)NS(=O)(=O)c4ccc(N[C@H](CCN5CCOCC5)CSc5ccccc5)c(S(=O)(=O)C(F)(F)F)c4)cc3)CC2)C1 [Navitoclax] + O=C(c1cc(Cc2n[nH]c(=O)c3ccccc23)ccc1F)N1CCN(C(=O)C2CC2)CC1 [Olaparib] (partner 8 µM) = 0.838

relative viability measured on CC1(C)CCC(c2ccc(Cl)cc2)=C(CN2CCN(c3ccc(C(=O)NS(=O)(=O)c4ccc(N[C@H](CCN5CCOCC5)CSc5ccccc5)c(S(=O)(=O)C(F)(F)F)c4)cc3)CC2)C1 [Navitoclax] + CC(C)C[C@H](NC(=O)[C@H](Cc1ccccc1)NC(=O)c1cnccn1)B(O)O [Bortezomib] (partner 0.002 µM) = 0.265

----------
Test system: SW 900
Experiment notes: relative viability (nuclei count vs DMSO), 5 days (fraction); higher = more cells survive
Condition label: first compound 0.1265 µM
Readout: relative viability

relative viability measured on O=C(O)c1ccc(-c2c[nH]c3ncc(-c4ccccc4)cc23)cc1C1CCCC1 + CCNC(=O)c1noc(-c2cc(C(C)C)c(O)cc2O)c1-c1ccc(CN2CCOCC2)cc1 [Luminespib] (partner 0.01 µM) = 0.171

relative viability measured on O=C(O)c1ccc(-c2c[nH]c3ncc(-c4ccccc4)cc23)cc1C1CCCC1 + COc1cc2c(Oc3ccc(NC(=O)C4(C(=O)Nc5ccc(F)cc5)CC4)cc3F)ccnc2cc1OCCCN1CCOCC1 [Foretinib] (partner 0.25 µM) = 0.839

relative viability measured on O=C(O)c1ccc(-c2c[nH]c3ncc(-c4ccccc4)cc23)cc1C1CCCC1 + COc1cccc2cc(-c3nc([C@H]4CC[C@H](C(=O)O)CC4)n4ncnc(N)c34)[nH]c12 [OSI-027] (partner 0.5 µM) = 0.493

relative viability measured on O=C(O)c1ccc(-c2c[nH]c3ncc(-c4ccccc4)cc23)cc1C1CCCC1 + Cc1nc(Nc2ncc(C(=O)Nc3c(C)cccc3Cl)s2)cc(N2CCN(CCO)CC2)n1 [Dasatinib] (partner 0.075 µM) = 0.712
